# ASSAY TARGET: acetylcholine receptor
# TEST DETAILS: SPR, AchR immobilised on CM5 chip, peptide 10 uM
READOUT LABEL: Binding affinity (RU)
State the answer as a number, implicitly in RU.

Sample records with Binding affinity (RU):
BINDER	Binding affinity (RU)
RMTMKK [6mer-2-728]	23
KNCGKK [6mer-2-605]	17
KYMGRK [6mer-2-768]	22
RRICMR [6mer-1-1062]	27
RASWRR [6mer-2-713]	24
KCCWKK [6mer-2-664]	11
KKNAWR [6mer-1-1014]	25

Shifting focus to the binder that follows.
Retrieve Binding affinity (RU) measured for RFCNKK [6mer-2-668] and print it.
13
